Target: recombinant human DAO (diamine oxidase) (Homo sapiens)
Construct: purchased R&D systems
Sequence (P19801 20-751): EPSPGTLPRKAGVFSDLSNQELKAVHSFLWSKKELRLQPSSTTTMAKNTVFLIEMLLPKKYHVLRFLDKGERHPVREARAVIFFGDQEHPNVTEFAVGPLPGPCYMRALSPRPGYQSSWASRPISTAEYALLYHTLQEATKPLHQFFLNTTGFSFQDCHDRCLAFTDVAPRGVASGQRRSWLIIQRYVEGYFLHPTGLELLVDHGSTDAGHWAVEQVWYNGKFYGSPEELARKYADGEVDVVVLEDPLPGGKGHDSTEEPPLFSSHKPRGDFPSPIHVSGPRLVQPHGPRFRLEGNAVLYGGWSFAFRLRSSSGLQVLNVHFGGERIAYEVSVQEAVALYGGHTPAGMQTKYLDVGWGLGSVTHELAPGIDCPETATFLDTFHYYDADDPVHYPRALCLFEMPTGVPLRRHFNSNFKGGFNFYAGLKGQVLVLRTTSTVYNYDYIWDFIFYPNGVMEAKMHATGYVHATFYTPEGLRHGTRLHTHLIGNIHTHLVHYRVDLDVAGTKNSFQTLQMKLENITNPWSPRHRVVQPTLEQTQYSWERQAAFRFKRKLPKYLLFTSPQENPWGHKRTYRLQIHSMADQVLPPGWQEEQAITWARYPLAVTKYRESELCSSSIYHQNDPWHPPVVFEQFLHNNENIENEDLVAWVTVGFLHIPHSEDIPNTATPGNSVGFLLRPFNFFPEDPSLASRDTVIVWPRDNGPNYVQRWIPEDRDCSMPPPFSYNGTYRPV
Assay: Amplex Red HRP-coupled amine oxidase activity evaluation, recombinant human DAO
Format: biochemical
Conditions: substrate 1 mM putrescine; read-out: Inhibitory Activity (IC50, nM) DAO
Description: [The source words this procedure for another target and says it was used here with some conditions changed.] The compounds according to the present technology were evaluated in terms of activity on recombinant human VAP-1 (R&D systems) by measuring the level of hydrogen peroxide in horseradish peroxidase (HRP)-coupled reaction using Amplex Red Hydrogen Peroxide Assay Kit (Molecular Probes, Invitrogen, USA). […] The inhibitory effect of the compounds was measured as a decrease (%) in the signal rate as compared to the control group without any inhibitor (only diluted DMSO). […]
Structures can show the parent of a compound that is named as a salt.
Mark yes only when IC50 stays strictly below 2000 nM. Values equal to the cut-off are no.

QUERY: For this molecule, is IC50 lower than 2000 nM? NCC(Cn1ccn(Cc2ccc(-c3ccn4ncnc4c3)s2)c1=O)=C(F)F [Example 53, trifluoroacetate]
RESULT: no

QUERY: For this molecule, is IC50 lower than 2000 nM? Cc1ccc(-c2ccc(S(C)(=O)=O)cc2)nc1-n1nnn(CC(CN)=C(F)F)c1=O [Example 23, trifluoroacetate]
RESULT: no

QUERY: For this molecule, is IC50 lower than 2000 nM? CCn1cc(-c2csc(-n3nnn(CC(CN)=C(F)F)c3=O)c2)ccc1=O [Example 37, trifluoroacetate]
RESULT: no

QUERY: For this molecule, is IC50 lower than 2000 nM? NCC(Cn1nnn(-c2cc(-c3ccc4c(c3)OCO4)cs2)c1=O)=C(F)F [Example 39, trifluoroacetate]
RESULT: yes

QUERY: For this molecule, is IC50 lower than 2000 nM? Cc1nn(CC(CN)=C(F)F)c(=O)n1Cc1ccc(-c2ccc(S(C)(=O)=O)cc2)s1 [Example 2, trifluoroacetate]
RESULT: no

QUERY: For this molecule, is IC50 lower than 2000 nM? NCC(Cn1nnn(Cc2cccc(-c3ccc4c(c3)OCO4)c2)c1=O)=C(F)F [Example 30, trifluoroacetate]
RESULT: yes

QUERY: For this molecule, is IC50 lower than 2000 nM? NCC(Cn1nnn(-c2cc(-c3ccc(N4CCNCC4)cc3)cs2)c1=O)=C(F)F [Example 36, di-trifluoroacetate]
RESULT: no

QUERY: For this molecule, is IC50 lower than 2000 nM? CN1C(=O)CCc2cc(-c3csc(-n4nnn(CC(CN)=C(F)F)c4=O)c3)ccc21 [Example 41, trifluoroacetate]
RESULT: yes

QUERY: For this molecule, is IC50 lower than 2000 nM? CN1C(=O)CCc2cc(-c3cccc(Cn4nnn(CC(CN)=C(F)F)c4=O)c3)ccc21 [Example 33, trifluoroacetate]
RESULT: yes

QUERY: For this molecule, is IC50 lower than 2000 nM? Cc1nn(CC(CN)=C(F)F)c(=O)n1Cc1ccc(-c2ccc3c(c2)CCC(=O)N3C)s1 [Example 8, trifluoroacetate]
RESULT: no

QUERY: For this molecule, is IC50 lower than 2000 nM? NCC(Cn1nnn(Cc2cccc(-c3ccc(N4CCNCC4)cc3)c2)c1=O)=C(F)F [Example 28, di-trifluoroacetate]
RESULT: no

QUERY: For this molecule, is IC50 lower than 2000 nM? Cc1nn(CC(CN)=C(F)F)c(=O)n1Cc1ccc(-c2ccc(N3CCNCC3)cc2)s1 [Example 3, di-trifluoroacetate]
RESULT: no

QUERY: For this molecule, is IC50 lower than 2000 nM? CCn1cc(-c2ccc(Cn3ccn(CC(CN)=C(F)F)c3=O)s2)cn1 [Example 52, trifluoroacetate]
RESULT: yes

QUERY: For this molecule, is IC50 lower than 2000 nM? CS(=O)(=O)c1ccc(-c2cccc(Cn3nnn(CC(CN)=C(F)F)c3=O)c2)cc1 [Example 27, trifluoroacetate]
RESULT: yes

QUERY: For this molecule, is IC50 lower than 2000 nM? CCn1cc(-c2ccc(-n3nnn(CC(CN)=C(F)F)c3=O)s2)ccc1=O [Example 9, trifluoroacetate]
RESULT: yes
